Tested on: PXR homodimer (NR concentration 270 nM)
Assay: PBM binding z-score (relative to random genomic background probes); higher = stronger binding; sequences stand for … in GC…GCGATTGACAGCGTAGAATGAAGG
Task for the reader: assign each of the following sequences its reported PBM binding z-score.
Numbers only.

Go through the items and report each one's PBM binding z-score.
1. CTCGAAAGGTCGGTTGAGGAGAGTATACGGATAA
2. ACTAGTTCGTCAGCTGAGGTCACACACAATTCGG
3. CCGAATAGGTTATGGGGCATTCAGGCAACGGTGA
4. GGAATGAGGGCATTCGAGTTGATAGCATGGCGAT
5. ACTTACGGGTCATCGAGGTTATAGCACGCGTATA
6. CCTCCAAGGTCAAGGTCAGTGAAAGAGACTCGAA

[0.356, 2.76, -0.0555, 1.54, 4.1, 1.54]

====

Test system: PPARg:RXRa (NR concentration 180 nM, RXRa partner concentration 90 nM)
Test: PBM binding z-score (relative to random genomic background probes); higher = stronger binding; sequences stand for … in GC…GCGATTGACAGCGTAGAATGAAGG
recorded.metric: PBM binding z-score
Give bare numbers.

Use these answered entries as a reference point.
>>> print(df.to_string())
                  biopolymer_sequence      recorded_metric     val
0  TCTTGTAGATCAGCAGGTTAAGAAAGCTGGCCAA  PBM binding z-score  -0.446
1  TCATATAGGTAAAAGGTGAAAGTAGGTGTGGTAA  PBM binding z-score    9.14
2  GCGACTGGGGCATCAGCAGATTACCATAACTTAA  PBM binding z-score    1.02
3  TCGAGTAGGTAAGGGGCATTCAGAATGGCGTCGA  PBM binding z-score   0.463

I'm hoping you can list PBM binding z-score for every sequence here, please.
1. ACTATTAGTTGACATAGGGCAACCGATACGACGC
2. CCGACTCGGGCAAGGTTACCATAACGCACAGCCA
3. ACTAACAGGCCAAGTTTGGGTCACTCAAACAAAG
4. GCTTACGGGTCAACGGTTATAGCATGAATAGAAT
5. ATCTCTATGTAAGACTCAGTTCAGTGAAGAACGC
6. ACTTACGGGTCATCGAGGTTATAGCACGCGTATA
7. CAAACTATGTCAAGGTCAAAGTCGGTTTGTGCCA
8. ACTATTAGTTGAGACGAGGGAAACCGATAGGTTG

1. 1.45
2. 1.01
3. 0.241
4. 6.07
5. 0.076
6. 5.44
7. 4.09
8. 0.531

====

I'd appreciate it if you could supply PBM binding z-score values for the items below.
System: RARg homodimer (NR concentration 270 nM)
Assay: PBM binding z-score (relative to random genomic background probes); higher = stronger binding; sequences stand for … in GC…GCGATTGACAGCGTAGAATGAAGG

In [3]: df
Out[3]:
                  biopolymer_sequence    val
0  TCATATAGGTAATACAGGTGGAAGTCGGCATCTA  0.449

Could you report PBM binding z-score for every entry in the following list?
1. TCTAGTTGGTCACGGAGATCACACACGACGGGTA
2. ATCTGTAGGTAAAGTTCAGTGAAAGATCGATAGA
3. TCTTGAAGATCAAAGGTTAAGAAAGCCGAAGCCT
4. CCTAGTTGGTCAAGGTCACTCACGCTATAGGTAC
5. CCTGCTAGGTCAATGGTAAGCTAAAGCAGCTCGC
6. TCTCCTAGGTCAACGATGGTCAGCTAATCTGCTA

1.4
2.25
0.685
4.75
3.82
5.72

// for each sequence below, give its PBM binding z-score
1. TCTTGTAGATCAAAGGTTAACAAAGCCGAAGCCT
2. ATCTCTAGGGAAAGATAGTTCAGTGAATGCAAAT
3. CAAACTAGGTCAACGGTCAAAGTCGAGCCAACCA
4. GTACCAAGGTGAATCGGTCGTTGATGAGTAGGCG
5. GCTAGTTGGTCAGTACAAGGTCACACACCGGTCG

1.09
0.656
5.4
1.01
3.66
